Test system: T-47D spheroids with HUVEC/MSC, viability
Test: Anticancer human tumor T-47D cell line growth inhibition [PI3K]
Conditions: second compound 0.01 µM; first compound 0.000316 µM; active compounds read low
observed.property: viability, T/C

- compound: "CC(=O)c1c(C)c2cnc(Nc3ccc(N4CCNCC4)cn3)nc2n(C2CCCC2)c1=O + COc1c(OCCCN2CCOCC2)ccc2c3n(c(=NC(=O)c4cnc(N)nc4)nc12)CCN3"
  observed.property: "viability, T/C"
  data.value: "89.3%"
- compound: "CC(C)n1nc(-c2ccc3oc(N)nc3c2)c2c(N)ncnc21 + COc1c(OCCCN2CCOCC2)ccc2c3n(c(=NC(=O)c4cnc(N)nc4)nc12)CCN3"
  observed.property: "viability, T/C"
  data.value: "103%"
- compound: "CC(=O)c1c(C)c2cnc(Nc3ccc(N4CCNCC4)cn3)nc2n(C2CCCC2)c1=O + CC(Nc1ccc2c(c1)OCCn1cc(N3C(=O)OCC3C(F)F)nc1-2)C(N)=O"
  observed.property: "viability, T/C"
  data.value: "83.8%"
- compound: "CC(C)n1nc(-c2ccc3oc(N)nc3c2)c2c(N)ncnc21 + CC(Nc1ccc2c(c1)OCCn1cc(N3C(=O)OCC3C(F)F)nc1-2)C(N)=O"
  observed.property: "viability, T/C"
  data.value: "89.2%"

I'm hoping you can list viability, T/C for every compound here, please.
1. Cn1ncnc1[C@H]1c2n[nH]c(=O)c3cc(F)cc(c23)N[C@@H]1c1ccc(F)cc1 + COc1c(OCCCN2CCOCC2)ccc2c3n(c(=NC(=O)c4cnc(N)nc4)nc12)CCN3
2. Cn1ncnc1[C@H]1c2n[nH]c(=O)c3cc(F)cc(c23)N[C@@H]1c1ccc(F)cc1 + CC(Nc1ccc2c(c1)OCCn1cc(N3C(=O)OCC3C(F)F)nc1-2)C(N)=O

Completion:
1: 114%; 2: 113%

====

System: T-47D spheroids with HUVEC/MSC, viability
Experiment: Anticancer human tumor T-47D cell line growth inhibition [PI3K]
Conditions: second compound 0.316 µM; first compound 0.1 µM; active compounds read low
Can you tell me viability, T/C for the items I'm about to list?
One number for each entry, in %.

Example entries and their recorded answers appear below.
- molecule: "Cn1ncnc1[C@H]1c2n[nH]c(=O)c3cc(F)cc(c23)N[C@@H]1c1ccc(F)cc1 + COc1c(OCCCN2CCOCC2)ccc2c3n(c(=NC(=O)c4cnc(N)nc4)nc12)CCN3"
  tgt: "T-47D spheroids with HUVEC/MSC, viability"
  observed.property: "viability, T/C"
  data.value: 15.1
- molecule: "Cn1nccc1Nc1nccc(-c2ccn(C(CO)c3ccc(Cl)c(F)c3)c(=O)c2)n1 (stereo not given) + Cc1nc(NC(=O)N2CCCC2C(N)=O)sc1-c1ccnc(C(C)(C)C(F)(F)F)c1"
  tgt: "T-47D spheroids with HUVEC/MSC, viability"
  observed.property: "viability, T/C"
  data.value: 93.3
- molecule: "CNC(=O)c1ccc(N2C(=S)N(c3ccc(C#N)c(C(F)(F)F)c3)C(=O)C2(C)C)cc1F + CC(Nc1ccc2c(c1)OCCn1cc(N3C(=O)OCC3C(F)F)nc1-2)C(N)=O"
  tgt: "T-47D spheroids with HUVEC/MSC, viability"
  observed.property: "viability, T/C"
  data.value: 79
- molecule: "CNC(=O)c1ccc(N2C(=S)N(c3ccc(C#N)c(C(F)(F)F)c3)C(=O)C2(C)C)cc1F + CC(Nc1ncnc2nc[nH]c12)c1cc2cccc(Cl)c2c(=O)n1-c1ccccc1"
  tgt: "T-47D spheroids with HUVEC/MSC, viability"
  observed.property: "viability, T/C"
  data.value: 88

As a next step, examine the molecule that follows.
# molecule C#Cc1c(F)ccc2cc(O)cc(-c3ncc4c(N5CC6CCC(C5)N6)nc(OCC56CCCN5CC(F)C6)nc4c3F)c12 (stereo not given) + Cc1nc(NC(=O)N2CCCC2C(N)=O)sc1-c1ccnc(C(C)(C)C(F)(F)F)c1 ; its viability, T/C = 71.2

====

Tested on: T-47D spheroids with HUVEC/MSC, viability
Assay: Anticancer human tumor T-47D cell line growth inhibition [PI3K];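 further: spheroids exposed to agents for seven days before reading; percent of DMSO vehicle control luminescence so 100% = untreated growth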
Conditions: second compound 0.316 µM; first compound 0.0316 µM; active compounds read low
viability, T/C less than 90% is class 1; viability, T/C greater than or equal to 90% is class 0.

Study these solved cases before continuing.
- compound: "CCCS(=O)(=O)Nc1ccc(F)c(C(=O)c2c[nH]c3ncc(-c4ccc(Cl)cc4)cc23)c1F + CC(Nc1ncnc2nc[nH]c12)c1cc2cccc(Cl)c2c(=O)n1-c1ccccc1"
  class.name: "class 0"
- compound: "CC(C)NCC(C(=O)N1CCN(c2ncnc3c2C(C)CC3O)CC1)c1ccc(Cl)cc1 (stereo unspecified) + COc1c(OCCCN2CCOCC2)ccc2c3n(c(=NC(=O)c4cnc(N)nc4)nc12)CCN3"
  class.name: "class 1"

Prompt: Determine if C[C@@H](NC(=O)c1ncnc(N)c1Cl)c1ncc(C(=O)Nc2cc(C(F)(F)F)c(Cl)cn2)s1 + CC(Nc1ncnc2nc[nH]c12)c1cc2cccc(Cl)c2c(=O)n1-c1ccccc1 shows viability, T/C strictly lower than 90%.
Completion: class 0

Prompt: Record CCCS(=O)(=O)Nc1ccc(F)c(C(=O)c2c[nH]c3ncc(-c4ccc(Cl)cc4)cc23)c1F + COc1c(OCCCN2CCOCC2)ccc2c3n(c(=NC(=O)c4cnc(N)nc4)nc12)CCN3 : is its viability, T/C strictly below 90%?
Completion: class 1

====

System: T-47D spheroids with HUVEC/MSC, viability
Assay: Anticancer human tumor T-47D cell line growth inhibition [PI3K];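 further: spheroids exposed to agents for seven days before reading; percent of DMSO vehicle control luminescence so 100% = untreated growth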
Settings: second compound 0.1 µM; first compound 0.1 µM; active compounds read low
Description: Combinatorial screen of targeted agents with the PI3K inhibitors inavolisib, alpelisib, duvelisib, and copanlisib in multi-cell type tumor spheroids A high-throughput screen of multi-cell type tumor spheroids was designed to identify active combinations of targeted small molecules and PI3K pathway inhibitors. […] Compounds. […] If the clinical Cmax for an agent had not been determined, the highest concentration tested was 10 microM. […]
observed.property: viability, T/C

- compound: "CC1(C)CCC(CN2CCN(c3ccc(C(=O)NS(=O)(=O)c4ccc(NCC5CCOCC5)c([N+](=O)[O-])c4)c(Oc4cnc5[nH]ccc5c4)c3)CC2)=C(c2ccc(Cl)cc2)C1 + CC(Nc1ccc2c(c1)OCCn1cc(N3C(=O)OCC3C(F)F)nc1-2)C(N)=O"
  viability, T/C: "76.3%"
- compound: "CC(=O)c1c(C)c2cnc(Nc3ccc(N4CCNCC4)cn3)nc2n(C2CCCC2)c1=O + Cc1nc(NC(=O)N2CCCC2C(N)=O)sc1-c1ccnc(C(C)(C)C(F)(F)F)c1"
  viability, T/C: "83%"

Next item in the queue.
Measured viability, T/C, CCCS(=O)(=O)Nc1ccc(F)c(C(=O)c2c[nH]c3ncc(-c4ccc(Cl)cc4)cc23)c1F + Cc1nc(NC(=O)N2CCCC2C(N)=O)sc1-c1ccnc(C(C)(C)C(F)(F)F)c1 : 92.5%

====

Test system: T-47D spheroids with HUVEC/MSC, viability
Experiment: Anticancer human tumor T-47D cell line growth inhibition [PI3K];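 further: spheroids exposed to agents for seven days before reading; percent of DMSO vehicle control luminescence so 100% = untreated growth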
Details: second compound 0.1 µM; first compound 0.316 µM; active compounds read low
Can you tell me viability, T/C for the items I'm about to list?
Give bare numbers, in %.

- compound: "CCCS(=O)(=O)Nc1ccc(F)c(C(=O)c2c[nH]c3ncc(-c4ccc(Cl)cc4)cc23)c1F + Cc1nc(NC(=O)N2CCCC2C(N)=O)sc1-c1ccnc(C(C)(C)C(F)(F)F)c1"
  data.value: 107

Please supply viability, T/C for each of the following items, keeping them in order.
1. CC(Cn1ccc(-c2ccc(C#N)c(Cl)c2)n1)NC(=O)c1cc(C(C)O)[nH]n1 (stereo not drawn) + COc1c(OCCCN2CCOCC2)ccc2c3n(c(=NC(=O)c4cnc(N)nc4)nc12)CCN3
2. CC1(C)CCC(CN2CCN(c3ccc(C(=O)NS(=O)(=O)c4ccc(NCC5CCOCC5)c([N+](=O)[O-])c4)c(Oc4cnc5[nH]ccc5c4)c3)CC2)=C(c2ccc(Cl)cc2)C1 + Cc1nc(NC(=O)N2CCCC2C(N)=O)sc1-c1ccnc(C(C)(C)C(F)(F)F)c1

Completion:
[41.5, 92.9]

====

Tested on: T-47D spheroids with HUVEC/MSC, viability
Test: Anticancer human tumor T-47D cell line growth inhibition [PI3K];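 further: spheroids exposed to agents for seven days before reading; percent of DMSO vehicle control luminescence so 100% = untreated growth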
Conditions: second compound 0.316 µM; first compound 0.1 µM; active compounds read low
Assignment: determine reported viability, T/C for the given compounds.
One number for each entry, in %.

Here is how some compounds turned out for viability, T/C.
- compound: "CC(C)n1nc(-c2ccc3oc(N)nc3c2)c2c(N)ncnc21 + Cc1nc(NC(=O)N2CCCC2C(N)=O)sc1-c1ccnc(C(C)(C)C(F)(F)F)c1"
  data.value: 26.9
- compound: "CC(=O)c1c(C)c2cnc(Nc3ccc(N4CCNCC4)cn3)nc2n(C2CCCC2)c1=O + Cc1nc(NC(=O)N2CCCC2C(N)=O)sc1-c1ccnc(C(C)(C)C(F)(F)F)c1"
  data.value: 75.3

The compound Cn1ncc(Cl)c1-c1cc(C(=O)NC(CN)Cc2cccc(F)c2)sc1Cl (stereo not drawn) + CC(Nc1ccc2c(c1)OCCn1cc(N3C(=O)OCC3C(F)F)nc1-2)C(N)=O , tested on T-47D spheroids with HUVEC/MSC, viability, showed viability, T/C of 59.7
